Just for reference, PubChem BioAssay AID624273 is where these values come from.

Molecular target: Long-chain-fatty-acid--AMP ligase FadD28 (Mycobacterium tuberculosis (strain ATCC 25618 / H37Rv)) (UniProt P9WQ59)
Sequence (P9WQ59 whole entry, looked up): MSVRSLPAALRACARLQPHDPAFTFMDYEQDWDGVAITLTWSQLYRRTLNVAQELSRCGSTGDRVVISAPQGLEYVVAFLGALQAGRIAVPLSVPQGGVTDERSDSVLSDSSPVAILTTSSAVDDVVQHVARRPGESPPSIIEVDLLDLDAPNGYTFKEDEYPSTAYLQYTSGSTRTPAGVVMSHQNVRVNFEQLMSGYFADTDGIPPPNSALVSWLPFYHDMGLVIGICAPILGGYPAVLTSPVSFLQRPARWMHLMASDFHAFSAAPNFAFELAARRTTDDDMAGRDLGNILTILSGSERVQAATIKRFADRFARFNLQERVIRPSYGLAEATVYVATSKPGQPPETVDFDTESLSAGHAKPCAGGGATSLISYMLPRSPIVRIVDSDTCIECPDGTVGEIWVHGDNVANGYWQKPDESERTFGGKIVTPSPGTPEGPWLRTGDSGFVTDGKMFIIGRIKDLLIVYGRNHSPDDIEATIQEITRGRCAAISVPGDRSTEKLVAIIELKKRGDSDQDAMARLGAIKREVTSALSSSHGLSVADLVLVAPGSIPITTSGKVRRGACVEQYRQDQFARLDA
Assay: inhibitors of FadD28 bisubstrate probe binding, dose response, biochemical, fluorescence polarization, cherry-pick (AID 624273)
Conditions: series mostly up to 50 µM
The whole screen tested about 1,000 compounds, of which about 230 (23%) were called active. Roughly 1% stayed inconclusive and do not appear here. The list shows a part of the results. Potency and affinity values are given separately.
measured metric: outcome

* CCOC(=O)c1ccc(Nc2cc(C)nc(-c3ccccc3O)n2)cc1 | inactive
* C=CCC[C@@H](Cc1ccc(F)cc1)C(=O)OC[C@@H](NC(=O)[C@@H](CC=C)CC(=O)N(CCO)Cc1ccccc1)c1ccccc1 | inactive
* CC(C)CN(C(=O)c1ccc(-n2cncn2)c([N+](=O)[O-])c1)C1CCS(=O)(=O)C1 (configuration not stated) | inactive
* Cn1c(=O)c2c(ncn2CC(=O)N/N=C/c2ccc(Br)s2)n(C)c1=O | inactive
* O=c1c2ccccc2c(-c2ccc(O)cc2)nn1-c1cccc(C(F)(F)F)c1 | inactive
* CCOC(=O)c1ccc(NS(=O)(=O)c2ccc3c(c2)NC(=O)CCS3)cc1 | inactive
* CCN(CC(=O)Nc1c(F)cccc1F)C(=O)Cc1ccccc1 | inactive
* Cc1ccccc1CS(=O)(=O)Cc1ccc(C(=O)NCc2ccco2)o1 | inactive
* COC1=CC(=O)OC(CCc2ccc3c(c2)OCO3)C1 (configuration not stated) | inactive
* O=C(O)c1c(C(=O)O)c(-c2ccc(Br)cc2)n2c1CSC2 | inactive
* FC(F)(F)c1cccc(NC(=S)N2CCN(c3ccccn3)CC2)c1 | inactive
* Nc1ccccc1/C=N\N=C/c1ccccc1N | inactive
* CCCCCCCCCCCCC(=O)CCCCC(=O)O | inactive
* O=C(CCc1nc2ccccc2c(=O)[nH]1)NCc1ccco1 | inactive
* Cc1nn(-c2ccccc2)c(Cl)c1/C=N/NC(=O)c1cccnc1 | inactive
* CN1c2ccsc2C(O)=C(C(=S)Nc2ccc(F)c(Cl)c2)S1(=O)=O | inactive
* CCC1(CC)NC(=O)N(CC(=O)Nc2ccc(OCc3ccccc3)cc2)C1=O | inactive
* Cc1ccc(C(=O)n2nc(C#N)c(C#N)c2N)cc1 | inactive
* CC1CCCN(Cc2c(O)ccc3c(=O)c(-c4nc5ccccc5s4)c(N)oc23)C1 (configuration not stated) | inactive
* COc1ccc(C(=O)NCC(=O)OCC(=O)NCc2cccs2)cc1 | inactive
* Nc1nnnn1/N=C/c1cc(Cl)cc(Cl)c1O | inactive
* CCCc1cc(=O)[nH]c(SCc2ccc(C#N)cc2)n1 | inactive

---

Target: Long-chain-fatty-acid--AMP ligase FadD28 (Mycobacterium tuberculosis (strain ATCC 25618 / H37Rv)) (UniProt P9WQ59)
Test: inhibitors of FadD28 bisubstrate probe binding, dose response, biochemical, fluorescence polarization, cherry-pick (AID 624273)
Conditions: series mostly up to 50 µM
The whole screen tested about 1,000 compounds, of which about 230 (23%) were called active. Not shown: some 1% with an inconclusive outcome. Some of the results follow. Measured potencies and affinities stand elsewhere.
measured metric: outcome

- O=C(CSc1nc2ccccc2[nH]1)NC1CCCc2ccccc21 (stereo unspecified): inactive
- COc1ccc(NC(=O)CSc2n[nH]c(-c3ccco3)n2)cc1: inactive
- CCn1c(SCC(=O)Nc2ccc(N3CCOCC3)cc2)nnc1-c1ccncc1: inactive
- Cc1c(NC(=O)c2ccc3ncccc3c2)c(=O)n(-c2ccccc2)n1C: inactive
- CN(Cc1cn(-c2ccccc2)nc1-c1ccc(F)cc1)C(=O)CCC(=O)O: inactive
- COc1cccc(-c2nc3ccc(C(=O)NC(C)Cc4cccnc4)cc3o2)c1 (stereo unspecified): inactive
